system: T1, Cynomolgus Factor P (cynomolgus)
T1 construct: Purified from cynomolgus serum for SET/Biacore; Factor P of cynomolgus serum in the functional assays; also called Cyno Factor P; cyno FP
assay protocol: Biacore SPR, captured Factor P
parameter: kon (M⁻¹ s⁻¹)
Note: unit M⁻¹ s⁻¹ is implicit; provide only the numeric part.

binder	reported value
NVS962-T (Fab, V domains shown, NVS962 with heavy chain N30 replaced with threonine; also called NSV962-T) VH: EVQLVQSGAEVKKPGSSVKVSCKASGGTFTSYAISWVRQAPGQGLEWMGRIIPIFGTANYAQKFQGRVTITADESTSTAYMELSSLRSEDTAVYYCARHGGYSFDSWGQGTLVTVSS VL: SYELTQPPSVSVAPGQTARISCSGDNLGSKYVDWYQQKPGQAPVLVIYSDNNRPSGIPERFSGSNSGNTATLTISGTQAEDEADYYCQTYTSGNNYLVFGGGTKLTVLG	488000
NVS965 (Fab, V domains shown, Disulfide-bridged Fab; also called Fab NVS965) VH: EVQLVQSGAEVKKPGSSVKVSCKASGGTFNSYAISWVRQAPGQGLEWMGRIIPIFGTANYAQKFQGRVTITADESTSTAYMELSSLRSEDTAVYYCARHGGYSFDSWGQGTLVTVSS VL: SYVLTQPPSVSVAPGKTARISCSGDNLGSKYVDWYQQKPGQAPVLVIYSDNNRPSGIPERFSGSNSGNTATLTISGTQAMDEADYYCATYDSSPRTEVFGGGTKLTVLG	2.24e+06

Read the next record carefully.
Q: Provide only the value of recorded kon for NVS965-Q (Fab, V domains shown, NVS965 with heavy chain N30 replaced with glutamine) VH: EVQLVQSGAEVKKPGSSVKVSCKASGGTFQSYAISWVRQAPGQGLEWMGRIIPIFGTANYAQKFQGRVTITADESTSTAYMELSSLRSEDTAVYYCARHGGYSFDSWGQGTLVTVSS VL: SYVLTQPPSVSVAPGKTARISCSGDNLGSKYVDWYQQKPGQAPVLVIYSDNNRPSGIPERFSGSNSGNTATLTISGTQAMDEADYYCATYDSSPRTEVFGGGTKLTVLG
A: 2.77e+06
